Attribution: patent US20250320312A1

- study target: BSA (UniProt P02769)
- Sequence (P02769 25-607 limits assumed): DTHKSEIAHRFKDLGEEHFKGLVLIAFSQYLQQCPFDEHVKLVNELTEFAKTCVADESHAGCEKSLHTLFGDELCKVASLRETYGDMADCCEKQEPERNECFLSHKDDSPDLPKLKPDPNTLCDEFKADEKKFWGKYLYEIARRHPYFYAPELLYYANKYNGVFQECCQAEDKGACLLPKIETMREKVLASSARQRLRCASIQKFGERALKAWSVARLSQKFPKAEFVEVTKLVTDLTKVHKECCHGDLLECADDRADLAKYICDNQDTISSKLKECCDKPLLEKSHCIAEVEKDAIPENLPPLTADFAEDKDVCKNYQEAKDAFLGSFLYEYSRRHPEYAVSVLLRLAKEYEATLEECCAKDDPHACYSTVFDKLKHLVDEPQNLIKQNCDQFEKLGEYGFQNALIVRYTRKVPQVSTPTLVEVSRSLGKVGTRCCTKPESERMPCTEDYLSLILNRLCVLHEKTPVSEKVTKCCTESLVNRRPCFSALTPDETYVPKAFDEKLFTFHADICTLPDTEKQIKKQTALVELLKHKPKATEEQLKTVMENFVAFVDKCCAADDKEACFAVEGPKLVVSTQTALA
- assay info: scFv ELISA
measure name: OD450 (OD450)
Express it in OD450; write the number only.

PcOxP_DB03_E04 (scFv, V domains shown, scFv in periplasmic extract) VH: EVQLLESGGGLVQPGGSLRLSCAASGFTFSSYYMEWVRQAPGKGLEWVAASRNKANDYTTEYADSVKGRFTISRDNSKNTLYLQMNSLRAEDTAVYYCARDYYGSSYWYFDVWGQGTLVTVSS VL: DIVMTQSPDSLAVSLGERATINCTASESLYSSKHKVHYLAWYQQKPGQPPKLLIYGASNRYLGVPDRFSGSGSGTDFTLTISSLQAEDVAVYYCAQFYSYPLTFGGGTKVEIK
0.08
PcOxP_DB03_C10 (scFv, V domains shown, scFv in periplasmic extract) VH: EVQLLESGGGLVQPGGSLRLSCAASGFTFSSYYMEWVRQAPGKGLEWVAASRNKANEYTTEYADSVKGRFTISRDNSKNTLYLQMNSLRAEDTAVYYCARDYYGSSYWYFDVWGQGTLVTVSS VL: DIVMTQSPDSLAVSLGERATINCTASESLYSSKHKVHYLAWYQQKPGQPPKLLIYGAGNRYIGVPDRFSGSGSGTDFTLTISSLQAEDVAVYYCAQFYSYPLTFGGGTKVEIK
0.07
PcOxP_DB01_D11 (scFv, V domains shown, scFv in periplasmic extract) VH: EVQLLESGGGLVQPGGSLRLSCAASGFTFSSYYMEWVRQAPGKGLEWVAASRNKANDYTTEYADSVKGRFTISRDNSKNTLYLQMNSLRAEDTAVYYCARDYYGSSYWYNDVWGQGTLVTVSS VL: DIVMTQSPDSLAVSLGERATINCTASESLYSSKWKVHYLAWYQQKPGQPPKLLIYGASNRYIGVPDRFSGSGSGTDFTLTISSLQAEDVAVYYCAQFYSYPLTFGGGTKVEIK
0.08

Q: Entry PcOxP_DB02_E03 (scFv, V domains shown, scFv in periplasmic extract) VH: EVQLLESGGGLVQPGGSLRLSCAASGFTFSDYYMEWVRQAPGKGLEWVAASRWKANDYTTEYADSVKGRFTISRDNSKNTLYLQMNSLRAEDTAVYYCARDYYGSSQWYFDVWGQGTLVTVSS VL: DIVMTQSPDSLAVSLGERATINCTASESLYSSKHKKNYLAWYQQKPGQPPKLLIYGASWRYIGVPDRFSGSGSGTDFTLTISSLQAEDVAVYYCAQFYSYPLTFGGGTKVEIK has what OD450?
A: 0.08

Q: Which OD450 is listed for PcOxP_DB03_F10 (scFv, V domains shown, scFv in periplasmic extract) VH: EVQLLESGGGLVQPGGSLRLSCAASGFTFSDHYMEWVRQAPGKGLEWVAASRNSGNSYTTEYADSVKGRFTISRDNSKNTLYLQMNSLRAEDTAVYYCARDYYGSSYWYFDVWGQGTLVTVSS VL: DIQMTQSPSSLSASVGDRVTITCTASESLYSSKHSVHYLAWYQQKPGKAPKLLIYGASNRFIGVPSRFSGSGSGTDFTLTISSLQPEDFATYYCAQFYSYPLTFGGGTKVEIK ?
A: 0.09
